B1: POU domain, class 2, transcription factor 3, residues 186 to 260; numbered along this chain, Q9UKI9 (parent)
chain: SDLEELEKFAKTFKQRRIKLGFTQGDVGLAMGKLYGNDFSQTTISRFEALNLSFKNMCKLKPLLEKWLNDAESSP

# Variants of: B1
# assay notes: abundance fitness (aPCA) (normalised: wild type 0, dead -1); higher = more abundant; growth selection in yeast, the domain comes from the species named
# applied conditions: Homo sapiens
Label satisfied when abundance fitness is at or above -0.03; anything below gets not satisfied.

mutant_designation=N51W label="not satisfied"
mutant_designation=N56I label="not satisfied"
mutant_designation=T12R label=satisfied
mutant_designation=L63P label="not satisfied"
mutant_designation=K66E label="not satisfied"
mutant_designation=S73G label=satisfied
mutant_designation=L63V label="not satisfied"
mutant_designation=K33W label="not satisfied"
mutant_designation=E65M label=satisfied
mutant_designation=N51K label=satisfied
mutant_designation=K61F label="not satisfied"
